Tested on: mGrn mRNA
protocol: mGrn mRNA qPCR in Neuro2a cells transfected with ASOs
Format: cell-based, mouse
runConditions: Table 16; Neuro2A, 160 nM, transfection
Protocol: 57 ASOs targeting the Grn promoter (− strand) were screened in Neuro2a cells. Neuro2a cells were transfected with 100 nM of each of the ASOs listed in Table 14 and cells were harvested 48 hours later for Grn mRNA quantification using qPCR. Housekeeping genes for normalization were Gapdh and Ppia. […] CO-3544 was modified to include PO/PS bonds and the efficacy in upregulating mGrn mRNA was determined. […]
Oligonucleotides are written 5' to 3', each unit as a sugar letter and its base; * is a phosphorothioate linkage, no mark a phosphodiester; rarer units and linkages stand in square brackets, end groups in braces. Plain capitals give the bases only. e = 2'-O-(2-methoxyethyl) (MOE); l = locked nucleic acid (LNA); [5mC] = 5-methylcytosine
quantity: 160 nM FC (mGrn mRNA)

Worked cases, answers included:
substance	160 nM FC (mGrn mRNA)
CO-5309: CO-3595 modified to include varying PO/PS internucleotide bonds (antisense e[5mC]*e[5mC]*eTeGeAeAe[5mC]eTeGeTeAeTeGeGe[5mC]eT*eG*eA*e[5mC]*e[5mC])	2.0 FC
CO-5304: CO-3595 modified to include varying PO/PS internucleotide bonds (antisense e[5mC]*e[5mC]*eT*eG*eAeAe[5mC]eTeGeTeAeTeGeGe[5mC]eTeG*eA*e[5mC]*e[5mC])	2.2 FC
CO-5315: CO-3595 modified to include varying PO/PS internucleotide bonds (antisense l[5mC]*l[5mC]*eT*lG*eA*lA*e[5mC]*lT*eG*lT*eA*lT*eG*lG*e[5mC]*lT*lG*eA*l[5mC]*l[5mC])	1.6 FC

mGrn mRNA 160 nM FC (mGrn mRNA) of CO-5308: CO-3595 modified to include varying PO/PS internucleotide bonds (antisense e[5mC]*e[5mC]*eT*eG*eA*eA*e[5mC]*eT*eG*eT*eA*eT*eGeGe[5mC]eTeG*eA*e[5mC]*e[5mC]) is 2.0 FC

Entry source: patent US20250243488A1
